B1: glmS ribozyme (parent)
chain: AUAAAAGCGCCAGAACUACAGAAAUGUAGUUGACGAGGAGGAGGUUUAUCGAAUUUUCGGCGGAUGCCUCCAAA

# Variants of: B1
# testName: self-cleavage kobs at 640 uM GlcN6P; higher = faster cleavage; RNA array
# cond: with glucosamine-6-phosphate
This sample holds only a part of the variants without activity.
quantityMeasured: self-cleavage kobs at 640 uM GlcN6P (s⁻¹)

{"columns": ["mutationName", "relationOperator", "quantitativeResult"],
 "data": [
  ["G43A U45A C61G", "<", "1e-05"],
  ["U46A U54G C70G", "=", 0.000291],
  ["G37A A53G", "=", 0.000708],
  ["C16A A52G", "=", "6.18e-05"],
  ["A14U C61A G66A", "<", "1e-05"],
  ["A14C G29A U56C U57G", "<", "1e-05"],
  ["U30A C70G", "=", "6.45e-05"],
  ["A6C G62A", "<", "1e-05"],
  ["U30A C34U G41C G51A", "<", "1e-05"],
  ["C16G G44U G51U C61U", "<", "1e-05"],
  ["A42U G44C A52C U57G U65A U69C", "<", "1e-05"],
  ["A12C G13U A36U", "<", "1e-05"],
  ["C16U C58G C68G", "=", 0.000132],
  ["U31G A53U", "=", 0.00281],
  ["U30A A53G", "=", 0.00196],
  ["G35U U45G U46G A64G", "<", "1e-05"],
  ["G51A G59U", "<", "1e-05"],
  ["A33C U69A", "<", "1e-05"],
  ["G7U C11G", "<", "1e-05"],
  ["G13C U69A", "=", "4.85e-05"],
  ["G29U G51C", "<", "1e-05"],
  ["G29U G40U", "=", 0.00014],
  ["A6G U54G", "=", "9.48e-05"],
  ["U31C G41A G59U", "<", "1e-05"],
  ["A15U U31G C71U", "=", 0.000238],
  ["G13A A14G", "=", 0.000393],
  ["G13U A53G", "=", 0.00029],
  ["U31G A42G", "=", 0.00343],
  ["A33U U47A G62U A64G C71U", "<", "1e-05"],
  ["G9C G29C C67U", "<", "1e-05"],
  ["G41U G51A", "<", "1e-05"],
  ["G7C G13C A48G C70A", "<", "1e-05"],
  ["U46G U56A", "=", 0.000601],
  ["C70A", "=", 0.00093],
  ["G29A G35C G40A", "<", "1e-05"],
  ["A14G U45G A53U", "=", 0.00262],
  ["C16G A53C", "=", 0.000233],
  ["C8G U55C C61U", "<", "1e-05"],
  ["U30G A36G", "<", "1e-05"],
  ["U45C A53U", "=", 0.00031],
  ["C34U U46G C68G", "=", 0.000568],
  ["A39G G40U C50U", "<", "1e-05"],
  ["U45G C68G", "=", "2.89e-05"],
  ["A39U A42C U49G", "<", "1e-05"],
  ["C34A G35U A36U", "<", "1e-05"],
  ["U49A G60C", "<", "1e-05"]
]}
